# assayed_system: T1, PSMA Fab (006 PSMA Fab) (biotinylated (site not stated))
# T1 construct: also called Anti-PSMA Fab
# test_name: clonal phage ELISA on captured PSMA Fab, wells pre-incubated with PSMA antigen as competitor
Label true (1) when Phage binding ELISA signal, Anti-PSMA Fab in presence of PSMA is at or above 0.09; otherwise label false (0).

Worked cases, answers included:
MVSHCVPLWMCAGF [Phage-3660 (peptide-180 library clone)]; false (0)
VAIACTPMWMCTGF [Phage-3661 (peptide-180 library clone)]; true (1)
ISIKCEPQWMCDGL [Phage-3671 (peptide-180 library clone)]; true (1)

In: Does the reported Phage binding ELISA signal, Anti-PSMA Fab in presence of PSMA for HVAACVPSWMCTGF [Phage-3662 (peptide-180 library clone)] fall at or above the 0.09 mark?
Out: false (0)

In: Does the reported Phage binding ELISA signal, Anti-PSMA Fab in presence of PSMA for EVRRCEPSWMCSVV [Phage-3666 (peptide-180 library clone)] fall at or above the 0.09 mark?
Out: false (0)

In: Does the reported Phage binding ELISA signal, Anti-PSMA Fab in presence of PSMA for PELRCHPPWMCTGF [Phage-3670 (peptide-180 library clone)] fall at or above the 0.09 mark?
Out: true (1)

In: Does the reported Phage binding ELISA signal, Anti-PSMA Fab in presence of PSMA for DHKLCKPEWMCAGL [Phage-3659 (peptide-180 library clone)] fall at or above the 0.09 mark?
Out: false (0)

In: Does the reported Phage binding ELISA signal, Anti-PSMA Fab in presence of PSMA for AAKYCEPSWMCYGF [Phage-3672 (peptide-180 library clone)] fall at or above the 0.09 mark?
Out: true (1)
